Test system: HUVECs (Human umbilical vein endothelial cells)
test.details: Inhibitory effects on HUVEC tube formation;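 on tube formation: from minus no inhibition up to plus-plus-plus complete inhibition versus vehicle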
Type: cell-based
applied.conditions: 10 μM
endpoint.name: Tube formation

- COC(OC)[C@@]1(C)Oc2ccc([N+](=O)[O-])cc2[C@@H](N(Cc2ncc[nH]2)c2ccc(Cl)cc2)[C@@H]1O: +
- COC(OC)[C@@]1(C)Oc2ccc(C#N)cc2[C@@H](N(Cc2ncc[nH]2)c2ccc(Cl)cc2)[C@@H]1O: +
- COC(OC)[C@@]1(C)Oc2ccc(N)cc2[C@@H](N(Cc2ncc[nH]2)c2ccc(C(F)(F)F)cc2)[C@@H]1O: +/−
- COC(OC)[C@@]1(C)Oc2ccc(N)cc2[C@@H](N(Cc2ncc[nH]2)c2ccc(Cl)cc2)[C@@H]1O: +

Please find the next compound below.
Record request: Tube formation value, item COC(OC)[C@@]1(C)Oc2ccc([N+](=O)[O-])cc2[C@H](N(Cc2ncc[nH]2)c2ccc(Cl)cc2)[C@H]1O
++

* * *

Tested on: HUVECs (Human umbilical vein endothelial cells)
test.details: Inhibitory effects on HUVEC tube formation;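 on tube formation: from minus no inhibition up to plus-plus-plus complete inhibition versus vehicle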
Format: cell-based
applied.conditions: 50 uM
endpoint.name: inhibitory effect on HUVEC tube formation

* COC(OC)[C@@]1(C)Oc2ccc([N+](=O)[O-])cc2[C@@H](N(Cc2ncc[nH]2)c2ccc(C(F)(F)F)cc2)[C@@H]1O | strongly inhibited
* COC(OC)[C@@]1(C)Oc2ccc([N+](=O)[O-])cc2[C@@H](N(Cc2ncc[nH]2)c2ccccc2C(C)C)[C@@H]1O | strongly inhibited
* COC(OC)[C@]1(C)Oc2ccc([N+](=O)[O-])cc2[C@H](N(Cc2ncc[nH]2)c2ccc(Cl)cc2)[C@H]1O | strongly inhibited

* * *

System: HUVECs (Human umbilical vein endothelial cells)
test.details: Inhibitory effects on HUVEC tube formation;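 on tube formation: from minus no inhibition up to plus-plus-plus complete inhibition versus vehicle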
Type: cell-based
applied.conditions: 100 μM
endpoint.name: Tube formation

* COC(OC)[C@@]1(C)Oc2ccc(N)cc2[C@@H](N(Cc2ncc[nH]2)c2ccc(Cl)cc2)[C@@H]1O | +
* COC(OC)[C@@]1(C)Oc2ccc(C#N)cc2[C@@H](N(Cc2ncc[nH]2)c2ccc(Cl)cc2)[C@@H]1O | ++
* COC(OC)[C@@]1(C)Oc2ccc([N+](=O)[O-])cc2[C@@H](N(Cc2ncc[nH]2)c2ccc(Cl)cc2)[C@@H]1O | ++
* COC(OC)[C@@]1(C)Oc2ccc(N)cc2[C@@H](N(Cc2ncc[nH]2)c2ccc(C(F)(F)F)cc2)[C@@H]1O | +/−

With those in mind, consider the next compound.
Tube formation lookup needed for COC(OC)[C@@]1(C)Oc2ccc([N+](=O)[O-])cc2[C@H](N(Cc2ncc[nH]2)c2ccc(Cl)cc2)[C@H]1O , thanks.
+++
